system: KRAS patient-derived spheroids with HUVEC/MSC, viability; test: Anticancer human tumor 323965-272-R-J2-PDC patient-derived pancreatic carcinoma cell line growth inhibition [KRAS2]; details: second compound 1 µM; first compound 1 µM; active compounds read low
metric: viability, T/C

compound: COC(=O)c1ccc2c(C(=Nc3ccc(N(C)C(=O)CN4CCN(C)CC4)cc3)c3ccccc3)c(O)[nH]c2c1 + C=CC(=O)N1CCN(c2nc(OCC3CCCN3C)nc3c2CCN(c2cccc4cccc(C)c24)C3)CC1CC#N
metric: viability, T/C
result: 49.5%

compound: CC1COCCN1c1cc(-c2ccnn2C)c2ccnc(-c3ccn[nH]3)c2n1 (stereo not drawn) + C=CC(=O)N1CCN(c2nc(OCC3CCCN3C)nc3c2CCN(c2cccc4cccc(C)c24)C3)CC1CC#N
metric: viability, T/C
result: 12.2%

compound: CC(C)NCC(C(=O)N1CCN(c2ncnc3c2C(C)CC3O)CC1)c1ccc(Cl)cc1 (stereo not drawn) + CC1OCC2(CCN(c3cnc(Sc4ccnc(N)c4Cl)c(N)n3)CC2)C1N
metric: viability, T/C
result: 12.7%

* * *

test system: KRAS patient-derived spheroids with HUVEC/MSC, viability; assay: Anticancer human tumor 323965-272-R-J2-PDC cell line growth inhibition [KRAS2]; details: second compound 0.316 µM; first compound 0.0316 µM; active compounds read low;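 note: spheroids exposed to agents for 7 days; 100% = DMSO vehicle control viability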
metric: viability, T/C

compound: COc1cc(Nc2ncc3c(n2)-c2ccc(Cl)cc2C(c2c(F)cccc2OC)=NC3)ccc1C(=O)O + CNCc1ccccc1-c1csc(C(C)Nc2nc(C)nc3cc(OC)c(OC)cc23)c1
result: 78.8%
--
compound: CC1COCCN1c1cc(-c2ccnn2C)c2ccnc(-c3ccn[nH]3)c2n1 (stereo unspecified) + C=CC(=O)N1CCN(c2nc(OCC3CCCN3C)nc3c2CCN(c2cccc4cccc(C)c24)C3)CC1CC#N
result: 21.7%
--
compound: CC(=O)OC12COC1CC(O)C1(C)C(=O)C(O)C3=C(C)C(OC(=O)C(O)C(NC(=O)OC(C)(C)C)c4ccccc4)CC(O)(C(OC(=O)c4ccccc4)C21)C3(C)C (stereo unspecified) + CC1OCC2(CCN(c3cnc(Sc4ccnc(N)c4Cl)c(N)n3)CC2)C1N
result: 23.9%
--
compound: COC(=O)c1ccc2c(C(=Nc3ccc(N(C)C(=O)CN4CCN(C)CC4)cc3)c3ccccc3)c(O)[nH]c2c1 + CNCc1ccccc1-c1csc(C(C)Nc2nc(C)nc3cc(OC)c(OC)cc23)c1
result: 90.6%
--
compound: COc1cc2nccc(Oc3ccc(NC(=O)C4(C(=O)Nc5ccc(F)cc5)CC4)cc3)c2cc1OC + CNCc1ccccc1-c1csc(C(C)Nc2nc(C)nc3cc(OC)c(OC)cc23)c1
result: 87.2%
--
compound: CCNC(=O)CC1N=C(c2ccc(Cl)cc2)c2cc(OC)ccc2-n2c(C)nnc21 (stereo unspecified) + C=CC(=O)N1CCN(c2nc(=O)n(-c3c(C)ccnc3C(C)C)c3nc(-c4c(O)cccc4F)c(F)cc23)C(C)C1
result: 51.5%
--
compound: COc1cc2nccc(Oc3ccc(NC(=O)C4(C(=O)Nc5ccc(F)cc5)CC4)cc3)c2cc1OC + COc1cc2nc(C)nc(NC(C)c3cc(N)cc(C(F)(F)F)c3)c2cc1OC1CCOC1
result: 76%
--
compound: CC(C)NCC(C(=O)N1CCN(c2ncnc3c2C(C)CC3O)CC1)c1ccc(Cl)cc1 (stereo unspecified) + CNCc1ccccc1-c1csc(C(C)Nc2nc(C)nc3cc(OC)c(OC)cc23)c1
result: 94.2%
--
compound: CC(=O)Nc1cccc(-n2c(=O)n(C3CC3)c(=O)c3c(Nc4ccc(I)cc4F)n(C)c(=O)c(C)c32)c1 + CC1OCC2(CCN(c3cnc(Sc4ccnc(N)c4Cl)c(N)n3)CC2)C1N
result: 20.4%
--
compound: Cn1nccc1Nc1nccc(-c2cc3c(s2)C(C)(C)N(CCN2CCOCC2)C3=O)n1 + CNCc1ccccc1-c1csc(C(C)Nc2nc(C)nc3cc(OC)c(OC)cc23)c1
result: 86.9%
--
compound: CC1(C)CCC(CN2CCN(c3ccc(C(=O)NS(=O)(=O)c4ccc(NCC5CCOCC5)c([N+](=O)[O-])c4)c(Oc4cnc5[nH]ccc5c4)c3)CC2)=C(c2ccc(Cl)cc2)C1 + COc1cc2nc(C)nc(NC(C)c3cc(N)cc(C(F)(F)F)c3)c2cc1OC1CCOC1
result: 67.7%
--
compound: Cn1ncnc1[C@H]1c2n[nH]c(=O)c3cc(F)cc(c23)N[C@@H]1c1ccc(F)cc1 + COc1cc2nc(C)nc(NC(C)c3cc(N)cc(C(F)(F)F)c3)c2cc1OC1CCOC1
result: 65.2%
--
compound: CCNC(=O)CC1N=C(c2ccc(Cl)cc2)c2cc(OC)ccc2-n2c(C)nnc21 (stereo unspecified) + CNCc1ccccc1-c1csc(C(C)Nc2nc(C)nc3cc(OC)c(OC)cc23)c1
result: 87.2%
--
compound: COc1cc2nccc(Oc3ccc(NC(=O)C4(C(=O)Nc5ccc(F)cc5)CC4)cc3)c2cc1OC + C=CC(=O)N1CCN(c2nc(=O)n(-c3c(C)ccnc3C(C)C)c3nc(-c4c(O)cccc4F)c(F)cc23)C(C)C1
result: 52.8%
--
compound: COC(=O)c1ccc2c(C(=Nc3ccc(N(C)C(=O)CN4CCN(C)CC4)cc3)c3ccccc3)c(O)[nH]c2c1 + COc1cc2nc(C)nc(NC(C)c3cc(N)cc(C(F)(F)F)c3)c2cc1OC1CCOC1
result: 89.3%
--
compound: CC(=O)Nc1cccc(-n2c(=O)n(C3CC3)c(=O)c3c(Nc4ccc(I)cc4F)n(C)c(=O)c(C)c32)c1 + C=CC(=O)N1CCN(c2nc(=O)n(-c3c(C)ccnc3C(C)C)c3nc(-c4c(O)cccc4F)c(F)cc23)C(C)C1
result: 20.9%
--
compound: CC(C)n1nc(-c2ccc3oc(N)nc3c2)c2c(N)ncnc21 + C=CC(=O)N1CCN(c2nc(=O)n(-c3c(C)ccnc3C(C)C)c3nc(-c4c(O)cccc4F)c(F)cc23)C(C)C1
result: 14.8%
--
compound: COc1cc(Nc2ncc3c(n2)-c2ccc(Cl)cc2C(c2c(F)cccc2OC)=NC3)ccc1C(=O)O + COc1cc2nc(C)nc(NC(C)c3cc(N)cc(C(F)(F)F)c3)c2cc1OC1CCOC1
result: 66.2%
--
compound: CCN1CCN(Cc2ccc(Nc3ncc(F)c(-c4cc(F)c5nc(C)n(C(C)C)c5c4)n3)nc2)CC1 + CC1OCC2(CCN(c3cnc(Sc4ccnc(N)c4Cl)c(N)n3)CC2)C1N
result: 42.1%
--
compound: CCNC(=O)CC1N=C(c2ccc(Cl)cc2)c2cc(OC)ccc2-n2c(C)nnc21 (stereo unspecified) + C=CC(=O)N1CCN(c2nc(OCC3CCCN3C)nc3c2CCN(c2cccc4cccc(C)c24)C3)CC1CC#N
result: 89.5%
--
compound: CC(C)n1nc(-c2ccc3oc(N)nc3c2)c2c(N)ncnc21 + COc1cc2nc(C)nc(NC(C)c3cc(N)cc(C(F)(F)F)c3)c2cc1OC1CCOC1
result: 17.4%

* * *

system: KRAS patient-derived spheroids with HUVEC/MSC, viability; test: Anticancer human tumor 323965-272-R-J2-PDC cell line growth inhibition [KRAS2]; conditions: second compound 0.316 µM; first compound 0.0316 µM; active compounds read low;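 note: spheroids exposed to agents for 7 days; 100% = DMSO vehicle control viability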
As shown below, each of these compounds has a reported viability, T/C value.

compound: COc1cc(Nc2ncc3c(n2)-c2ccc(Cl)cc2C(c2c(F)cccc2OC)=NC3)ccc1C(=O)O + C=CC(=O)N1CCN(c2nc(=O)n(-c3c(C)ccnc3C(C)C)c3nc(-c4c(O)cccc4F)c(F)cc23)C(C)C1
experimental-system: KRAS patient-derived spheroids with HUVEC/MSC, viability
viability, T/C / %: 54.1
//
compound: O=C(c1cc(Cc2n[nH]c(=O)c3ccccc23)ccc1F)N1CCN(C(=O)C2CC2)CC1 + C=CC(=O)N1CCN(c2nc(=O)n(-c3c(C)ccnc3C(C)C)c3nc(-c4c(O)cccc4F)c(F)cc23)C(C)C1
experimental-system: KRAS patient-derived spheroids with HUVEC/MSC, viability
viability, T/C / %: 67.1
//
compound: CC1OCC2(CCN(c3cnc(Sc4ccnc(N)c4Cl)c(N)n3)CC2)C1N (configuration not stated) + COc1cc2nc(C)nc(NC(C)c3cc(N)cc(C(F)(F)F)c3)c2cc1OC1CCOC1
experimental-system: KRAS patient-derived spheroids with HUVEC/MSC, viability
viability, T/C / %: 52.5
//
compound: CC(C)n1nc(-c2ccc3oc(N)nc3c2)c2c(N)ncnc21 + CC1OCC2(CCN(c3cnc(Sc4ccnc(N)c4Cl)c(N)n3)CC2)C1N
experimental-system: KRAS patient-derived spheroids with HUVEC/MSC, viability
viability, T/C / %: 12.4
//
compound: CCN1CCN(Cc2ccc(Nc3ncc(F)c(-c4cc(F)c5nc(C)n(C(C)C)c5c4)n3)nc2)CC1 + C=CC(=O)N1CCN(c2nc(OCC3CCCN3C)nc3c2CCN(c2cccc4cccc(C)c24)C3)CC1CC#N
experimental-system: KRAS patient-derived spheroids with HUVEC/MSC, viability
viability, T/C / %: 33.8
//
compound: O=C(c1cc(Cc2n[nH]c(=O)c3ccccc23)ccc1F)N1CCN(C(=O)C2CC2)CC1 + C=CC(=O)N1CCN(c2nc(OCC3CCCN3C)nc3c2CCN(c2cccc4cccc(C)c24)C3)CC1CC#N
experimental-system: KRAS patient-derived spheroids with HUVEC/MSC, viability
viability, T/C / %: 57.8
//
compound: CCNC(=O)CC1N=C(c2ccc(Cl)cc2)c2cc(OC)ccc2-n2c(C)nnc21 (configuration not stated) + CC1OCC2(CCN(c3cnc(Sc4ccnc(N)c4Cl)c(N)n3)CC2)C1N
experimental-system: KRAS patient-derived spheroids with HUVEC/MSC, viability
viability, T/C / %: 63.3
